# Assay Notes: Toxicity liver stage against HepG2, at 10uM
# Type: cell-based
# Design: test concentration 10 uM, cell line HepG2-A16-CD81EGFP
# Experimental Context: human, HepG2-A16-CD81EGFP cells; read-out: INHIBITION
Reported cytotoxicity at 10 µM values for a set of compounds

For orientation, consider the following solved cases.
>  <Compound>
CN(C)C(=O)C1CN(Cc2cscn2)CCN(S(C)(=O)=O)C1 (stereo unspecified)

>  <cytotoxicity at 10 µM>
-6.46%

$$$$
>  <Compound>
COc1ccccc1COCC(O)CN(C)Cc1cccc(Cl)c1 (stereo unspecified)

>  <cytotoxicity at 10 µM>
-1.28%

$$$$
>  <Compound>
Cc1occc1C(=O)N1CCC(C(O)c2ccc(F)cc2)CC1 (stereo unspecified)

>  <cytotoxicity at 10 µM>
-2.69%

$$$$
>  <Compound>
Cc1ccc(F)cc1NC(=O)NCC(C)N1CCOCC1 (stereo unspecified)

>  <cytotoxicity at 10 µM>
2.6%

$$$$

Fill in: cytotoxicity at 10 µM of Cc1oncc1C(=O)N1CC[C@H]2C[C@H](c3ccncn3)O[C@@H]2C1 is ___
-67.4%

Please give the measured cytotoxicity at 10 µM for this compound: COc1cc2nc(NCc3scnc3C)nc(N)c2cc1OC
6.34%

Find the recorded cytotoxicity at 10 µM belonging to O=C1NC(c2ccccc2)=N[C@@]12CC[C@@H]1CN(S(=O)(=O)C3CC3)C[C@@H]12 and report it.
9.91%

Requested read-out: cytotoxicity at 10 µM. Entry: Cc1nc(N(C)C)nc(C)c1NC(=O)c1ccccc1F
41.7%

// lookup cytotoxicity at 10 µM for O=C(NCc1ccco1)[C@@H]1CC[C@@H]2[C@@H](CCN2Cc2ccc(F)cc2)O1
-0.748%

If you can, please state the reported cytotoxicity at 10 µM value of Cc1cnc(C(=O)N2C[C@H](N3CCOCC3)[C@@H]3OCCC[C@@H]32)cn1 .
-107%

What value of measured cytotoxicity at 10 µM is listed for Cc1cc(CN2CCc3nn(C(C)C)c(=O)cc3C2)no1 ?
-13.8%

* * *

# Assay Notes: Toxicity liver stage against HepG2, at 10uM
# Assay type: cell-based
# Design: test concentration 10 uM, cell line HepG2-A16-CD81EGFP
# Experimental Context: human, HepG2-A16-CD81EGFP cells; read-out: INHIBITION
Readout Type: cytotoxicity at 10 µM
The number alone won't do; follow it with the unit.

>  <Compound>
Cc1ccc2[nH]c(C3CCN(C)CC3)nc2c1

>  <Meas Value>
6.79%

$$$$
>  <Compound>
CN1CCC(N(C)c2ccccc2CNCc2ccco2)CC1

>  <Meas Value>
-9.05%

$$$$

// query cytotoxicity at 10 µM value for entry Cc1cc(C)n(CC2CCCN2CC(=O)NC2CCOCC2)n1 (centres undefined)
-5.23%

Entry under review: CN(C)Cc1nnc(C2CCN(c3ncccc3Cl)CC2)n1C1CC1 . Reported cytotoxicity at 10 µM?
-2.57%

Name the reported cytotoxicity at 10 µM value associated with the compound Cn1nccc1NCc1cc2cc(F)ccc2o1
8.57%

Fill blank: measured cytotoxicity at 10 µM of the compound c1cc(-c2cnccn2)cc(-c2ccn(CCN3CCCCC3)n2)c1 is ____.
-4.54%

Sample Cc1cc(C(=O)N2CC[C@H]3[C@H](C[C@@H](CN4CCCC4)N3C)C2)c(C)o1 — what was its cytotoxicity at 10 µM?
9.97%

# get_value(readout='cytotoxicity at 10 µM', item= CNS(=O)(=O)c1ccc(CNC(=O)N(C)CC(O)COC)cc1 (centres undefined) )
-1.22%

* * *

# Assay Notes: Toxicity liver stage against HepG2, at 10uM
# Type: cell-based
# Set-up: test concentration 10 uM, cell line HepG2-A16-CD81EGFP
# Experimental Context: human, HepG2-A16-CD81EGFP cells; read-out: INHIBITION
Parameter cytotoxicity at 10 µM: see the listing below.
Please format your answer as a value with the unit trailing.

See these solved cases before continuing.
>  <Compound>
CCc1ncc(C(=O)N2CCN(Cc3ncccc3C)CC2)cn1

>  <Meas Value>
-4.68%

$$$$
>  <Compound>
COC(=O)CN1CC(c2nc(Cc3ccccc3)no2)C1

>  <Meas Value>
-22.9%

$$$$
>  <Compound>
Cc1noc(CS(=O)(=O)C(C)C(=O)N(C)c2ccccc2)n1 (configuration not stated)

>  <Meas Value>
9.26%

$$$$

// returns reported cytotoxicity at 10 µM for input COc1ccccc1OCC(=O)NCC(O)(c1cccs1)C1CC1 (configuration not stated)
-5%

Param item = CN1CC(Oc2ccccc2)=NC(SCC(=O)Nc2ccccc2Cl)=N1 ; retrieve measured cytotoxicity at 10 µM.
-9.19%

Fill in: cytotoxicity at 10 µM of O=C(COc1ccccc1NCc1ccoc1)N1CCOCC1 is ___
3.61%

Returns the measured cytotoxicity at 10 µM for the input compound. Input: Cc1ccc(C)c(S(=O)(=O)NC(=O)c2ccc(C)[nH]c2=O)c1
-1.07%

Requested field: cytotoxicity at 10 µM. Item: O=C(C1CC1)N1CC2(CCNCC2)c2cc(F)ccc21
0.317%

Name the recorded cytotoxicity at 10 µM for COCCNc1ccc(CC2CCNC2)cn1 (configuration not stated) .
9.33%

Can you look up the measured cytotoxicity at 10 µM of CCN(CC)CC[C@H]1CN(C(=O)C2CCC2)CC[C@H]1CC(=O)O for me?
1.35%

I have this compound here, CNC(=O)N1C[C@@H]2C[C@H](C(=O)Nc3cccnc3)[C@H](C1)O2 , and I need its recorded cytotoxicity at 10 µM.
-76.2%

Given the compound CCN1C(=O)[C@]2(CC[C@@H]3CN(C(=O)Nc4ccc(F)cc4)C[C@@H]32)N=C1C , what is its reported cytotoxicity at 10 µM?
3.22%

* * *

Items are presented alongside their recorded cytotoxicity at 10 µM.
# Assay Notes: Toxicity liver stage against HepG2, at 10uM
# Assay type: cell-based
# Parameters: test concentration 10 uM, cell line HepG2-A16-CD81EGFP
# Experimental Context: human, HepG2-A16-CD81EGFP cells; read-out: INHIBITION
The reply should be a number in %, with the unit left off.

Item under review: CNC(=O)Cn1nc(C(C)C)c2cnn(C(C)(C)C)c2c1=O . Reported cytotoxicity at 10 µM?
-7.67

What value of cytotoxicity at 10 µM has been recorded for this entry: O=C1COc2cc(C(=O)NCc3ccc(Cl)s3)ccc2N1
1.55

Which cytotoxicity at 10 µM is reported for this compound? COc1cccc(NC(=O)N(CCC(F)(F)F)C[C@H](O)CO)c1
-9.48

* * *

# Assay Notes: Toxicity liver stage against HepG2, at 10uM
# Format: cell-based
# Set-up: test concentration 10 uM, cell line HepG2-A16-CD81EGFP
# Experimental Context: human, HepG2-A16-CD81EGFP cells; read-out: INHIBITION
Readout Type: cytotoxicity at 10 µM (%)
Express the result in % but write the number alone.

// worked examples, cytotoxicity at 10 µM included
>  <Compound>
O=C(NCCc1ccccn1)C1CC(=O)N(CC(F)(F)F)C1 (stereo unspecified)

>  <cytotoxicity at 10 µM (%)>
-25.2

$$$$
>  <Compound>
CN(CC(=O)NC(C)(C#N)C1CC1)Cc1nnc(C2CC2)n1C (stereo unspecified)

>  <cytotoxicity at 10 µM (%)>
7.32

$$$$
>  <Compound>
O=C(NCCc1c[nH]cn1)c1ccc(S(=O)(=O)NC2CCOC2)cc1 (stereo unspecified)

>  <cytotoxicity at 10 µM (%)>
-1.91

$$$$

Dear colleague, I am looking for the recorded cytotoxicity at 10 µM of the following compound: COc1cccc(CN2CCCCCC2c2cccc(F)c2)c1O (stereo unspecified)
5.02

Data request, read-out cytotoxicity at 10 µM, for Cc1nc(C(C)C)sc1C(=O)NCC(C)(C)N1CCOCC1
-6.47

What cytotoxicity at 10 µM value was documented for this compound, CN(Cc1cc[nH]n1)C(=O)c1cccc(CCC(C)(C)O)c1 ?
-0.0174

* * *

# Assay Notes: Toxicity liver stage against HepG2, at 10uM
# Assay type: cell-based
# Parameters: test concentration 10 uM, cell line HepG2-A16-CD81EGFP
# Experimental Context: human, HepG2-A16-CD81EGFP cells; read-out: INHIBITION
Entries and their cytotoxicity at 10 µM values follow.
Provide only the numeric value, understood in %.

Worked examples, 10 compounds total:
>  <Compound>
COc1cccc(-c2cc(NCc3nccn3C)n(C)n2)c1

>  <Reading Unit>
%

>  <Meas Value>
0.684

$$$$
>  <Compound>
Cc1cc(C(C)NC(=O)Cn2nc(C)c3ccccc3c2=O)c(C)o1 (stereo not drawn)

>  <Reading Unit>
%

>  <Meas Value>
-5.3

$$$$
>  <Compound>
CN(Cc1ncc[nH]1)c1nc(-c2ccccn2)nc2c1CCNCC2

>  <Reading Unit>
%

>  <Meas Value>
-0.796

$$$$
>  <Compound>
O=C(O)c1cn(-c2ccccn2)c(=O)c2ccccc12

>  <Reading Unit>
%

>  <Meas Value>
0.847

$$$$
>  <Compound>
CCc1ccc(CN(CCCn2ccnc2)Cc2ccc(C)s2)o1

>  <Reading Unit>
%

>  <Meas Value>
3.86

$$$$
>  <Compound>
O=C([C@H]1COC[C@H]2CN(CC3CCC3)C[C@H]21)N1CCOCC1

>  <Reading Unit>
%

>  <Meas Value>
17.3

$$$$
>  <Compound>
CC1CCCCN1c1nc2c(c(=O)[nH]1)CCN(Cc1cccnc1)C2 (stereo not drawn)

>  <Reading Unit>
%

>  <Meas Value>
-6.15

$$$$
>  <Compound>
Cc1ccc(C(=O)N2CCC3(CC2)CC(c2ccccc2)C(=O)N3)cn1 (stereo not drawn)

>  <Reading Unit>
%

>  <Meas Value>
-7.42

$$$$
>  <Compound>
CC(SCC(=O)N(C)CC(=O)NC1CC1)c1cc(F)ccc1F (stereo not drawn)

>  <Reading Unit>
%

>  <Meas Value>
8.13

$$$$
>  <Compound>
CN(C)CC1CN(Cc2coc(-c3ccccc3Cl)n2)CCO1 (stereo not drawn)

>  <Reading Unit>
%

>  <Meas Value>
-1.15

$$$$

Dear colleague, I am looking for the recorded cytotoxicity at 10 µM of the following compound: CC(NC(=O)c1ccc2c(c1)COC2)c1cccc(N2CCOC2=O)c1 (stereo not drawn)
14.9

Record request: cytotoxicity at 10 µM value, item CCN1CCn2c(C)cnc2C12CCN(C(=O)NC)CC2
0.906

Can you share its cytotoxicity at 10 µM? I mean this compound: COCc1nc2nc(O)c3c(n2n1)NC(=O)CC3c1ccccc1Cl (stereo not drawn)
-20.8

Which cytotoxicity at 10 µM reading was recorded for the compound CN(CCC#N)C(=O)CN1CCCC1c1cccs1 (stereo not drawn) ?
-8.83

Field request: cytotoxicity at 10 µM | item: FC(F)Oc1ccc(NCc2nc(C3CC3)no2)c(OC(F)F)c1
4.19

Any idea what cytotoxicity at 10 µM was measured for NC(=O)CC1CCN(C(=O)NCc2ccccc2-n2cccn2)CC1 ?
2.19

I am curious: what cytotoxicity at 10 µM value has been reported for O=C(CCC(=O)N1CCc2ccccc2C1)c1cccs1 ?
-61.8
